Biological target: Amine oxidase [flavin-containing] B (Rattus norvegicus)
Sequence (P19643 whole entry): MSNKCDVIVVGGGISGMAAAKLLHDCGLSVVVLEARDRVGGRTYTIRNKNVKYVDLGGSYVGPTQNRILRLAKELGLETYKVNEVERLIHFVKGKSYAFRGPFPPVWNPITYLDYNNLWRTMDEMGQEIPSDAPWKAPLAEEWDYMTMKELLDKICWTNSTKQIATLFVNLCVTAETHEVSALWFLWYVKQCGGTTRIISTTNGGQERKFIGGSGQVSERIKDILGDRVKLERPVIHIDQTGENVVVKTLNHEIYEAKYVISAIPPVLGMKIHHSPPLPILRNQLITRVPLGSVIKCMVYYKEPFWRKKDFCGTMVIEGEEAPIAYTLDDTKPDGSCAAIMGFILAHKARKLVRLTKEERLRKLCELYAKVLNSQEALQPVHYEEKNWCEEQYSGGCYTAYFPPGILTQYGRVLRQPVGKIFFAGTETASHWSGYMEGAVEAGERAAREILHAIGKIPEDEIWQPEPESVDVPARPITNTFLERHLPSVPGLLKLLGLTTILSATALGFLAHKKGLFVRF
Assay: Inhibition of rat MAO-B in rat-liver mitochondrial-fraction using [14C]-PEA substrate
Measured parameter: pIC50
Give bare numbers, as −log10 of the molar value.

Memo: C#CCNCc1cc2cc(OCc3ccccc3)ccc2[nH]1 , reported pIC50: 5.90

====

Biological target: UniProtKB P19643
Assay: Inhibition of rat MAO-B from mitochondria-enriched rat liver fractions using p-tyraimne substrate
So basically, if IC50 comes in under 0.8 µM it's TRUE, and if it's 0.8 µM or more it's FALSE.

Would you kindly verify if IC50 of O=C(Nc1ccc(Cl)c(F)c1)c1ccc2cn[nH]c2c1 is strictly less than 0.8 µM?
FALSE

Is IC50 of COc1ccc(NC(=O)c2ccc3cn[nH]c3c2)cc1OC strictly below 0.8 µM?
FALSE

I'd appreciate it if you could check whether O=C(Nc1ccc2[nH]ncc2c1)c1ccc(Cl)c(Cl)c1 has IC50 smaller than 0.8 µM.
TRUE

Quick check: does O=C(Nc1ccc2cn[nH]c2c1)c1cnc(N2CCOCC2)c(Cl)c1 have IC50 under 0.8 µM?
FALSE

Please state whether IC50 is below 0.8 µM for Cn1ccc2cc(C(=O)Nc3ccc(Cl)c(Cl)c3)ccc21
TRUE

Proceed to the following item.
Could you please tell me whether IC50 recorded for O=C(Nc1ccc2[nH]ncc2c1)c1c(F)cccc1Cl is less than 0.8 µM?
FALSE
